The measurements presented in this section are drawn from patent US20250282812A1.

Kindly supply the reported Content reduction (%) values for the records listed here.
Assay: Stability test of compounds in solutions at different pH values
Settings: buffered saline solution pH 4.0, 15 h
Give just the numeric value; % need not be written.

Prompt line: Any idea what its Content reduction (%) is? The compound is CC(C)C(=O)OCn1c(=O)ccn([C@@H]2O[C@](F)(COC(=O)C(C)C)[C@@H](O)[C@H]2O)c1=O
Response line: 3.9

Prompt line: Any idea what its Content reduction (%) is? The compound is O=c1ccn([C@@H]2O[C@](F)(CO)[C@@H](O)[C@H]2O)c(=O)[nH]1 [Compound X28-1, reference compound]
Response line: 26.9

Prompt line: Any idea what its Content reduction (%) is? The compound is CC(C)C(=O)OC[C@@]1(F)O[C@@H](n2ccc(=O)n(COC(=O)C3CCCCC3)c2=O)[C@H](O)[C@@H]1O
Response line: 10.8

Prompt line: Any idea what its Content reduction (%) is? The compound is CC(=O)OC[C@@]1(F)O[C@@H](n2ccc(=O)n(COC(=O)c3cccnc3)c2=O)[C@H](OC(C)=O)[C@@H]1OC(C)=O
Response line: 0.70

Prompt line: Any idea what its Content reduction (%) is? The compound is CC(C)C(=O)OC[C@@]1(F)O[C@@H](n2ccc(=O)n(COC(=O)c3cccnc3)c2=O)[C@H](OC(=O)C(C)C)[C@@H]1OC(=O)C(C)C
Response line: 0.03

Prompt line: Any idea what its Content reduction (%) is? The compound is CC(=O)OC[C@@]1(F)O[C@@H](n2ccc(=O)n(COC(=O)c3cccnc3)c2=O)[C@H](OC(C)=O)[C@@H]1OC(C)=O.Cl [X219 hydrochloride]
Response line: 0.64

Prompt line: Any idea what its Content reduction (%) is? The compound is CCC(CC)C(=O)OCn1c(=O)ccn([C@@H]2O[C@](F)(COC(=O)C(C)C)[C@@H](O)[C@H]2O)c1=O
Response line: 2.6
